Source: patent US20230219886A1

tested on: HT-29 (CRC); assay: MTT cell viability assay, HT-29; details: Homo sapiens, HT-29, 48 h, read-out: cell viability
VALUE_TYPE: viability at 50 µM (%)
Answer in %, number only, no unit symbol.

Entry under test: CC1=C(CC(=O)O)c2cc(F)ccc2/C1=C\c1ccc([S+](C)[O-])cc1 (stereo not shown) [Sulin, sulindac, reference compound] . Its viability at 50 µM was 98.6

Looking up "C[Se]C(=O)c1ccccc1OC(C)=O" , I found its viability at 50 µM recorded as 17.7

Record "C[Se]C(=O)c1ccccc1Nc1cccc(C)c1C" . Reported viability at 50 µM: 22.6

The recorded viability at 50 µM for "COc1ccc2cc([C@H](C)C(=O)[Se]C)ccc2c1" is 46.4

For record "COc1ccc2c(c1)c(CC(=O)[Se]C)c(C)n2C(=O)c1ccc(Cl)cc1" the listed viability at 50 µM is 18

###

tested on: OV: OVCAR-5; experiment: NCI-60 dose-response, OVCAR-5; type: cell-based, human; settings: OVCAR-5, most resistant cell line; read-out: LC50 (the source's name)
VALUE_TYPE: CC50 (µM)
Numbers only; they are read as µM.

// recorded CC50 for C[Se]C(=O)CC1=C(C)/C(=C/c2ccc([S+](C)[O-])cc2)c2ccc(F)cc21 (stereo not shown) [Compound 6a] : 3.9

###

system: H1299 (lung carcinoma); assay: MTT cell viability assay, H1299; settings: Homo sapiens, NCI-H1299, 48 h, read-out: cell viability
Label class 1 when viability at 25 µM is strictly below 50%; otherwise label class 0.

Solved cases below.
compound="COc1ccc2c(c1)c(CC(=O)O)c(C)n2C(=O)c1ccc(Cl)cc1 [Inn, indomethacin, reference compound]" tgt="H1299 (lung carcinoma)" qualitative_label="class 0"
compound="O=C(O)c1cc(-c2ccc(F)cc2F)ccc1O [Dfl, diflunisal, reference compound]" tgt="H1299 (lung carcinoma)" qualitative_label="class 0"
compound=C[Se]C(=O)c1ccccc1Nc1cccc(C)c1C tgt="H1299 (lung carcinoma)" qualitative_label="class 0"
compound="CC1=C(CC(=O)O)c2cc(F)ccc2/C1=C\\c1ccc([S+](C)[O-])cc1 (stereo not shown) [Sulin, sulindac, reference compound]" tgt="H1299 (lung carcinoma)" qualitative_label="class 0"
compound=C[Se]C(=O)c1ccccc1OC(C)=O tgt="H1299 (lung carcinoma)" qualitative_label="class 1"

Problem: Field: below-cutoff. Rule: recorded viability at 25 µM strictly less than 50%. Subject: "C[Se]C(=O)c1cc(-c2ccc(F)cc2F)ccc1O"
Solution: class 0

Problem: Does "COc1ccc2c(c1)c(CC(=O)[Se]C)c(C)n2C(=O)c1ccc(Cl)cc1" have viability at 25 µM strictly under 50%?
Solution: class 1

Problem: In plain terms, does Cc1cccc(Nc2ccccc2C(=O)O)c1C [Mf, mefenamic acid, reference compound] come in under 50% for viability at 25 µM?
Solution: class 1

Problem: For this compound, is viability at 25 µM lower than 50%? "COc1ccc2cc([C@H](C)C(=O)[Se]C)ccc2c1"
Solution: class 1

###

system: BxPC3 cells; assay: MTT assay, pancreatic ductal adenocarcinoma cells BxPC3; assay type: cell-based
VALUE_TYPE: IC50 (nM)
The reply should contain only the number, in nM.

IC50 reported for this molecule C[Se]C(=O)CC1=C(C)/C(=C/c2ccc([S+](C)[O-])cc2)c2ccc(F)cc21 (stereo not shown) [Compound 6a] : 1000

###

system: RKO CRC cells; assay: cells; conditions: RKO, 48 h
VALUE_TYPE: IC50 (µM)
Your answer is read as µM, so omit the unit and give the number.

IC50 reading for C[Se]C(=O)CC1=C(C)/C(=C/c2ccc([S+](C)[O-])cc2)c2ccc(F)cc21 (stereo not shown) : 17.2

###

IC50 reference
test system: HCT-116 CRC cells; assay: MTT cell viability assay, HCT-116; assay type: cell-based, human; settings: Homo sapiens, HCT-116, 72 h; read-out: IC50
Express your answer in µM, writing the number without its unit.

Some solved entries appear below for comparison.
compound=COc1ccc2c(c1)c(CC(=O)[Se]C)c(C)n2C(=O)c1ccc(Cl)cc1 scale_unit=µM value=18.7
compound=CC[Se]C(=O)Cc1c(C)n(C(=O)c2ccc(Cl)cc2)c2ccc(OC)cc12 scale_unit=µM value=8.2
compound="CC[Se]C(=O)CC1=C(C)/C(=C/c2ccc([S+](C)[O-])cc2)c2ccc(F)cc21 (centres unmarked)" scale_unit=µM value=7.2
compound="CC[Se]C(=O)c1ccccc1OC(C)=O [Compound 1b, 2-((ethylselanyl)carbonyl)phenyl acetate]" scale_unit=µM value=6.8

Moving on to another compound below.
Entry "C[Se]C(=O)c1ccccc1OC(C)=O" , IC50 reported as 1

###

test system: HT-29 (CRC); experiment: MTT cell viability assay, HT-29; details: HT-29, 48 h
# key: entry, value: TGI

Solved entries:
compound="CC(=O)Oc1ccccc1C(=O)O [ASA, aspirin, reference compound]" value_type=TGI value=">50 µM"
compound="COc1ccc2c(c1)c(CC(=O)O)c(C)n2C(=O)c1ccc(Cl)cc1 [Inn, indomethacin, reference compound]" value_type=TGI value=">50 µM"

// returns TGI for CC1=C(CC(=O)O)c2cc(F)ccc2/C1=C\c1ccc([S+](C)[O-])cc1 (stereo not drawn) [Sulin, sulindac, reference compound] with HT-29 (CRC); value = >50 µM

###

Entries annotated with measured IC50
test system: CACO-2 CRC cells; assay: cells; conditions: Homo sapiens, Caco-2, 72 h

compound="COc1ccc2c(c1)c(CC(=O)[Se]Cc1ccccc1)c(C)n2C(=O)c1ccc(Cl)cc1 [Compound 5c]" value="> 50 µM"
compound="CC[Se]C(=O)c1ccccc1OC(C)=O [Compound 1b, 2-((ethylselanyl)carbonyl)phenyl acetate]" value="> 50 µM"

Summary for this compound, CC1=C(CC(=O)[Se]Cc2ccccc2)c2cc(F)ccc2/C1=C\c1ccc([S+](C)[O-])cc1 (stereo not drawn) [Compound 6c] : IC50 is 14.2 µM

###

system: HT-29 (CRC); assay: MTT cell viability assay, HT-29; conditions: Homo sapiens, HT-29, 72 h
pIC50: −log10 of the molar value.
VALUE_TYPE: pIC50

molecule="COc1ccc2c(c1)c(CC(=O)O)c(C)n2C(=O)c1ccc(Cl)cc1 [Inn, indomethacin, reference compound]" value="< 4.30"

# pIC50 (molecule: CC1=C(CC(=O)O)c2cc(F)ccc2/C1=C\c1ccc([S+](C)[O-])cc1 (stereo not drawn) [Sulin, sulindac, reference compound] ) is < 4.30

Record CC(=O)Oc1ccccc1C(=O)O [ASA, aspirin, reference compound] . Reported pIC50: < 4.30

###

test system: HT-29 (CRC); experiment: MTT cell viability assay, HT-29; conditions: Homo sapiens, HT-29, 48 h, read-out: cell viability
Decide using viability at 50 µM alone. Strictly below 70%: condition met. Equal to or above 70%: condition not met.

Examples with answers:
compound="COc1ccc2c(c1)c(CC(=O)O)c(C)n2C(=O)c1ccc(Cl)cc1 [Inn, indomethacin, reference compound]" qualitative_label="condition not met"
compound=C[Se]C(=O)c1cc(-c2ccc(F)cc2F)ccc1O qualitative_label="condition met"
compound="Cc1cccc(Nc2ccccc2C(=O)O)c1C [Mf, mefenamic acid, reference compound]" qualitative_label="condition met"
compound="O=C(O)c1cc(-c2ccc(F)cc2F)ccc1O [Dfl, diflunisal, reference compound]" qualitative_label="condition not met"

Okay, now this compound:
Problem: Strictly below 70% in viability at 50 µM? CC(=O)Oc1ccccc1C(=O)O [ASA, aspirin, reference compound]
Solution: condition met

###

# IC50 per entry
system: HCT-116 CRC cells; experiment: MTT cell viability assay, HCT-116; assay type: cell-based, human; details: Homo sapiens, HCT-116, 72 h; read-out: IC50

molecule="CC1=C(CC(=O)O)c2cc(F)ccc2/C1=C\\c1ccc([S+](C)[O-])cc1 (stereo not drawn) [Sulin, sulindac, reference compound]" value="> 50 µM"
molecule="COc1ccc2c(c1)c(CC(=O)O)c(C)n2C(=O)c1ccc(Cl)cc1 [Inn, indomethacin, reference compound]" value="> 50 µM"

// switching to the query molecule
For this molecule ( CC(=O)Oc1ccccc1C(=O)O [ASA, aspirin, reference compound] ), measured IC50 is > 50 µM
